target_system: Cbl-b (Homo sapiens (Human), UniProt Q13191)
Sequence (Q13191 40-426): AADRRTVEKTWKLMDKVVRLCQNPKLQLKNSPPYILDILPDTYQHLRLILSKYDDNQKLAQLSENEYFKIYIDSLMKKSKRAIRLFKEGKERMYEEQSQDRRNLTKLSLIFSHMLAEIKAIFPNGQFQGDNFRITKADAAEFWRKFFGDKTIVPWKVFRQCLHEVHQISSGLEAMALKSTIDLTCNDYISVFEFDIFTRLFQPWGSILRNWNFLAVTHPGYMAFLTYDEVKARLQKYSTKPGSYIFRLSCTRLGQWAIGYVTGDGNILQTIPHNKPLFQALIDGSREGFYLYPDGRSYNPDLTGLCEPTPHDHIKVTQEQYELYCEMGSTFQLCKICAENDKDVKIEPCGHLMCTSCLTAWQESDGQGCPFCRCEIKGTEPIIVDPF
experiment_description: Cbl-b LCK Ub TR-FRET assay (Cbl-b Lck HTRF)
Format: biochemical
measurement_parameters: ratio C-cbl Lck HTRF IC50 / Cbl-b Lck HTRF IC50
measured_endpoint: fold-selectivity (Cbl-b over C-cbl)

The cases that follow already have their fold-selectivity (Cbl-b over C-cbl) on record.
Cn1cnnc1C1(c2cccc(N3Cc4c(cc(C(N)=O)cc4C(F)(F)F)C3=O)c2)CCC1 [Compound 327] = 2.9x
Cn1cnnc1[C@@H](c1cccc(N2Cc3c(Cl)cc(CNC4(C)CCC4)cc3C2=O)c1)C1COC1 [Compound 270] = 2.3x
Cn1cnnc1[C@]1(c2cccc(N3Cc4c(cc(CNC5(C)CCC5)cc4C(F)(F)F)C3=O)c2)C[C@@H](S(C)(=O)=O)C1 [Compound 325] = 1.9x
COC1CC2(C1)CC(c1cccc(N3Cc4c(cc(CNC5(C)CCC5)cc4C(F)(F)F)C3=O)c1)(c1nncn1C)C2 (stereo not shown) [Compound 229] = 5.9x
Cn1cnnc1C1(c2cccc(N3Cc4c(cc(CNC5(C)CCC5)cc4C(F)(F)F)C3=O)c2)CN(C2COC2)C1 [Compound 111] = 4.1x
CO[C@H]1C[C@](c2cc(N[C@@H](C)CC#N)cc(N3Cc4c(cc(CNC5(C)CCC5)cc4C(F)(F)F)C3=O)c2)(c2nncn2C)C1 (single isomer, unassigned) [Compound 225] = 4.0x

### Prompt Find the recorded fold-selectivity (Cbl-b over C-cbl) belonging to Cn1cnnc1[C@]1(c2cccc(N3Cc4c(cc(CNC5(C)CCC5)cc4C(F)(F)F)C3=O)c2)C[C@]2(CCCO2)C1 [Compound 340] and report it.
### Response 10x

### Prompt Find the recorded fold-selectivity (Cbl-b over C-cbl) belonging to Cn1cnnc1[C@@H](c1cccc(N2Cc3c(cc(CNC4(C)CCC4)cc3C(F)(F)F)C2=O)c1)C1CCCCC1 [Compound 250] and report it.
### Response 1.2x

### Prompt Find the recorded fold-selectivity (Cbl-b over C-cbl) belonging to Cn1cnnc1[C@]1(c2cccc(N3Cc4c(cc(CNC5(C)CCC5)cc4C(F)(F)F)C3=O)c2)C[C@@H]([S@+](C)[O-])C1 (single isomer, unassigned) [Compound 160] and report it.
### Response 3.9x
